assay.target: BRDT(1) (Homo sapiens, UniProt Q58F21)
Construct: the bromodomain-containing protein is BRDT(1)
experiment: BromoScan selectivity panel (Kd)
Format: binding
test.context: Table 8; read-out: Kd (nM) BRDT(1)
recorded.endpoint: Kd (nM)
Kindly provide the numeric value in nM only, without the unit symbol.

Request: Given the compound `Cc1noc(C)c1-c1ccc(-c2nc3cnccn3c2NC(C)(C)C)cc1` , write its reported Kd.
Response: 110

---

assay.target: ATAD2B (Homo sapiens, UniProt Q9ULI0)
Sequence (Q9ULI0 953-1085 limits assumed): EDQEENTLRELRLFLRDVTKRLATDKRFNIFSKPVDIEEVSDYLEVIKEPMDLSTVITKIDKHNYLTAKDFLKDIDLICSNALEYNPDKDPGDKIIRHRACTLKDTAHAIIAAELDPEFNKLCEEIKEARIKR
experiment: BromoScan selectivity panel (Kd)
Type: binding
test.context: Table 8; read-out: Kd (nM) ATAD2B
recorded.endpoint: Kd

Request: Look up and report Kd, with ATAD2B (Homo sapiens, UniProt Q9ULI0) as system, for `Cc1noc(C)c1-c1ccc(-c2nc3cnccn3c2NC(C)(C)C)cc1`
Response: ≥ 40000 nM

---

assay.target: BRD9 (Homo sapiens, UniProt Q9H8M2)
Sequence (Q9H8M2 130-250 limits assumed): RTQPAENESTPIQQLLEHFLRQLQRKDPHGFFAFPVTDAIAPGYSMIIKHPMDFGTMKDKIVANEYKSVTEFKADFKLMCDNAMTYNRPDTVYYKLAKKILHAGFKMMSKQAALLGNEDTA
experiment: BromoScan selectivity panel (Kd)
Format: binding
recorded.endpoint: Kd

Request: State its Kd for this compound: CCNC(=O)C[C@@H]1N=C(c2ccc(Cl)cc2)c2cc(OC)ccc2-n2c(C)nnc21 [I-BET, reference compound]
Response: ≥ 40 µM

Request: Recall and state the measured Kd for Cc1sc2c(c1C)C(c1ccc(Cl)cc1)=NC(CC(=O)OC(C)(C)C)c1nnc(C)n1-2 (centres unmarked) [JQ1, reference compound] .
Response: ≥ 40 µM

---

assay.target: TAF1L(2) (Homo sapiens, UniProt Q8IZX4)
Construct: TAF1L(2)
Sequence (Q8IZX4 1517-1626 limits assumed): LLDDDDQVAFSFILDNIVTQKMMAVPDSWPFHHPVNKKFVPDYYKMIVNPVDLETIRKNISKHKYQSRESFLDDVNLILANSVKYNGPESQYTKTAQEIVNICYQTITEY
experiment: BromoScan selectivity panel (Kd)
Type: binding
pKd: −log10 of the molar value.
recorded.endpoint: pKd

Request: Indicate the recorded pKd value for this compound: CCNC(=O)C[C@@H]1N=C(c2ccc(Cl)cc2)c2cc(OC)ccc2-n2c(C)nnc21 [I-BET, reference compound]
Response: ≤ 4.40

---

assay.target: BRD3(1) (Homo sapiens, UniProt Q15059)
Construct: the bromodomain-containing protein is BRD3(1)
Sequence (Q15059 34-140 limits assumed): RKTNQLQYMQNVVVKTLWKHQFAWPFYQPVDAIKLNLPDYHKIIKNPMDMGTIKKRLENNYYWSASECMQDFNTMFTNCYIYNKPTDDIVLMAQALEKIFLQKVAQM
experiment: BromoScan selectivity panel (Kd)
Type: binding
test.context: Table 8; read-out: Kd (nM) BRD3(1)
recorded.endpoint: Kd (nM)
Write down the numeric answer in nM and omit the unit.

Request: Lab note: record Kd of `Cc1noc(C)c1-c1ccc(-c2nc3cnccn3c2NC(C)(C)C)cc1` tested on BRD3(1) (Homo sapiens, UniProt Q15059).
Response: 35

---

assay.target: UniProt:O95696
Sequence (O95696 556-688 limits assumed): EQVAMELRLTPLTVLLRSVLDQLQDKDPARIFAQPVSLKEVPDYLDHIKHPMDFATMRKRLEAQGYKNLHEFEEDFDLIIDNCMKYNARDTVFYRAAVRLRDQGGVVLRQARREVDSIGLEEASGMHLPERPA
experiment: BromoScan selectivity panel (Kd)
Format: binding
test.context: Table 9; read-out: BromoScan Kd, nM BRD1
recorded.endpoint: Kd

Request: Give recorded Kd. `Cc1noc(C)c1-c1ccc(-c2nc3cnccn3c2NC(C)(C)C)cc1`
Response: ≥ 40000 nM

---

assay.target: BRD9 (Homo sapiens)
experiment: BromoScan selectivity panel (Kd)
Assay type: binding
test.context: Table 9; read-out: BromoScan Kd, nM BRD9
recorded.endpoint: Kd

Request: Quickly give me recorded Kd for Cc1noc(C)c1-c1ccc(-c2nc3cnccn3c2NC(C)(C)C)cc1 [UMB32]
Response: ≥ 40000 nM

---

assay.target: TRIM33(PHD Bromo.) (Homo sapiens, UniProt Q9UPN9)
Construct: TRIM33(PHD, Bromo.); TRIM33(PHD Bromo.); fused on or other part: The vendor panel's detection tag or display handle
Sequence (Q9UPN9 1-1127): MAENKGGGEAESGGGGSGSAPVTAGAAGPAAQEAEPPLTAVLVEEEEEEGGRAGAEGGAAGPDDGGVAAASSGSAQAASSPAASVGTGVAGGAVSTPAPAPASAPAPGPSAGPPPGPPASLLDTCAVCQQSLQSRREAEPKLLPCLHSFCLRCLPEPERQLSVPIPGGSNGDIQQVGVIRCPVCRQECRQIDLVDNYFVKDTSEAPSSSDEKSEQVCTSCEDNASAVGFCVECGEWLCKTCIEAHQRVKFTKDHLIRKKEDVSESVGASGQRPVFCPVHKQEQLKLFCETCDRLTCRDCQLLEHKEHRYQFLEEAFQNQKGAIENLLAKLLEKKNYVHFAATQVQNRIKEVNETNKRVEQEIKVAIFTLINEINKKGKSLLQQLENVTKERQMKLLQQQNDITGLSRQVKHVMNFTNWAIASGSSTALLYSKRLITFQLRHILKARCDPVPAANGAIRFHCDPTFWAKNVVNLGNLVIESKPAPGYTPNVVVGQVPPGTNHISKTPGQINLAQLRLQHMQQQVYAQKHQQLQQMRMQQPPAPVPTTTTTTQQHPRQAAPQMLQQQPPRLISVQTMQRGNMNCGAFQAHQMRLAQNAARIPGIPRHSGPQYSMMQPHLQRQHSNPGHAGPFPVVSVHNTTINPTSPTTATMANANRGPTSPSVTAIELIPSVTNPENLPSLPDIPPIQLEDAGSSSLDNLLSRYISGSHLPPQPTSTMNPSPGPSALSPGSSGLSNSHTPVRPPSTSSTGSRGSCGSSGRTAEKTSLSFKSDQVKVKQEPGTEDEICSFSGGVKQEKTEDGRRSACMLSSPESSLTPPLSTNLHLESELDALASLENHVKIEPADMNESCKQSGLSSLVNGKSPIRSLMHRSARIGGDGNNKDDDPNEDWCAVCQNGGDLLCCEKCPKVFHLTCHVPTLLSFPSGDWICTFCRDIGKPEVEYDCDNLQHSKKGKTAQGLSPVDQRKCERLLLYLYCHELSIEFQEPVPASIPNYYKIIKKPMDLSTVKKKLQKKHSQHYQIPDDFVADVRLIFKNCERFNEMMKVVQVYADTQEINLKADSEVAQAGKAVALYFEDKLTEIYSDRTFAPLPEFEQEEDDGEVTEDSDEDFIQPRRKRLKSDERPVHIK
experiment: BromoScan selectivity panel (Kd)
Format: binding
recorded.endpoint: Kd

Request: Identify Kd associated with the compound CCNC(=O)C[C@@H]1N=C(c2ccc(Cl)cc2)c2cc(OC)ccc2-n2c(C)nnc21 [I-BET, reference compound]
Response: ≥ 40 µM

Request: Quote Kd reported for Cc1sc2c(c1C)C(c1ccc(Cl)cc1)=NC(CC(=O)OC(C)(C)C)c1nnc(C)n1-2 (centres unmarked) [JQ1, reference compound] please.
Response: ≥ 40 µM
